Experiment: MTS tetrazolium reduction cell viability assay
Settings: rat, rat mesangial cells (1097/IRMC cells), TGF-β1 stimulated, CC50 (μM), vs 1% DMSO vehicle
Structures can show the parent of a compound that is named as a salt.
Field: CC50 at 48 h. Provide a value for each of the molecules that follow.
Numbers only, in µM.

C#CCOc1ccc(/C=C/C(=O)Nc2ccccc2C(=O)NCCN2CCOCC2)cc1OC [Example 35]	301
COc1ccc(C2CC2C(=O)Nc2ccccc2Cl)cc1OCc1cnn(C)c1 (centres unmarked) [Example 157]	45.3
C#CCOc1ccc(/C=C/C(=O)Nc2ccccc2C(=O)O)c(OCCN(C)C)c1OC [Example 78]	404
COc1ccc(/C=C/C(=O)Nc2ccc(F)cc2)c(OCCN(C)C)c1OC [Example 128, trifluoroacetic acid salt]	24.4

Would you mind listing CC50 at 48 h for each of the following molecules?
1. COc1ccc(/C=C/C(=O)N2CCOc3ccccc32)c(OCCN(C)C)c1OC [Example 115]
2. C#CCOc1ccc(/C=C/C(=O)Nc2ccccc2-c2nn[nH]n2)cc1OC [Example 16]
3. C#CCOc1ccc(/C=C/C(=O)Nc2ccccc2C(=O)NC2CCN(C)CC2)cc1OC [Example 36]
4. COc1cc(C2CC2C(=O)Nc2ccc(F)cc2)ccc1OC1CCN(C)C1 (centres unmarked) [Example 136]
5. COc1cc(/C=C/C(=O)Nc2ccc(C#N)cc2)ccc1OC1CCN(C)C1 (centres unmarked) [Example 131, trifluoroacetic acid salt]
6. C#CCOc1ccc(/C=C/C(=O)N2CCOc3ccccc32)cc1CC [Example 113]
7. C#CCOc1ccc(/C=C/C(=O)Nc2ccccc2C#N)c(OC2CCNC2)c1OC (centres unmarked) [Example 82]
8. COc1ccc(/C=C/C(=O)Nc2ccccc2C(=O)O)cc1N1CCOCC1 [Example 101]

1. 45.4
2. 107
3. 15.2
4. 16.3
5. 17.7
6. 32.6
7. 13.5
8. 119

Kindly give each listed record's CC50 at 48 h.
1. COc1cc(/C=C/C(=O)Nc2ccccc2C(=O)O)ccc1N1CCOCC1 [Example 103, trifluoroacetic acid salt]
2. C#CCOc1ccc(/C=C/C(=O)Nc2ccccc2C#N)c(OC2CCNCC2)c1OC [Example 88]

1: 265; 2: 12.4
